targetUnderTest: T1, human c-Met ECD-Fc-Flis (human)
T1 construct: c-Met ECD fused to Fc with flag- and His-tag at the C-terminus; also called human c-Met extracellular domain (ECD)-Fc-Flis fusion; human c-Met-Flis-Fc ECD
T1 sequence (chain, as listed by the source): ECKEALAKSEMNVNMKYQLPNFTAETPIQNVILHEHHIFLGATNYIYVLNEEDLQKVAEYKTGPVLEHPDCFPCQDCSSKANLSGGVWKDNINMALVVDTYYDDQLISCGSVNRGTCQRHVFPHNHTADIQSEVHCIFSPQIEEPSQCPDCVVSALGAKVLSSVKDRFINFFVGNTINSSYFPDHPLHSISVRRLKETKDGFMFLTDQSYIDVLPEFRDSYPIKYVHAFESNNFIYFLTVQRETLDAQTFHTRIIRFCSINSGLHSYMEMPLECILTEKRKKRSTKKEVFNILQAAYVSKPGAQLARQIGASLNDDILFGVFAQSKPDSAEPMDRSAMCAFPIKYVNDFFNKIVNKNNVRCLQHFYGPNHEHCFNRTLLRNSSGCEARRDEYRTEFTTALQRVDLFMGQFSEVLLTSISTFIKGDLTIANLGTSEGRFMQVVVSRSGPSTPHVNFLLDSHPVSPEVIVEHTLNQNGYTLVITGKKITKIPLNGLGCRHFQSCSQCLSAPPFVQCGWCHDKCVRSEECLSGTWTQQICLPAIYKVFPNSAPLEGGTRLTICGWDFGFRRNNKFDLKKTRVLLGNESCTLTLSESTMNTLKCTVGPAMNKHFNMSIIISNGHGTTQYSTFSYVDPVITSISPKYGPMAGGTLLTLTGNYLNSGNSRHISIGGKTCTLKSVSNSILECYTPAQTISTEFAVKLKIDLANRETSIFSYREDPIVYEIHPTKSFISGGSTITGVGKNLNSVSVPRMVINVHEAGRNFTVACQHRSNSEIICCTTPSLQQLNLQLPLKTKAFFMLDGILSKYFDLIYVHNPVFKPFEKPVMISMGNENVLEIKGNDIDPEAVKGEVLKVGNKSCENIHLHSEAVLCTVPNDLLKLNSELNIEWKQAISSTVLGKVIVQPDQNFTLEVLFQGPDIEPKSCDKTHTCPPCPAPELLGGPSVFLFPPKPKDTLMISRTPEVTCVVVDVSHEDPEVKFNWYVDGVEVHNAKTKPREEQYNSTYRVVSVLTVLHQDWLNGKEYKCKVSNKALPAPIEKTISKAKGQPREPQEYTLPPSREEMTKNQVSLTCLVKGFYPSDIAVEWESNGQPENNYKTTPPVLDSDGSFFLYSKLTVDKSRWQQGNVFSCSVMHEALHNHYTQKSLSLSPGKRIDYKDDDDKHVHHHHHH
runDescription: HGF-blocking ELISA: HGF signal on coated c-Met ECD-Fc-Flis; Ab 31250.00 ng/mL
readoutName: AVG A450 nm

{"binder": "D11-C27G3 (antibody, human IgG2, kappa, V domains shown, Human engineered IgG2 kappa c-Met antibody; also called D11-27G3; D11-C27G3 IgG2) VH: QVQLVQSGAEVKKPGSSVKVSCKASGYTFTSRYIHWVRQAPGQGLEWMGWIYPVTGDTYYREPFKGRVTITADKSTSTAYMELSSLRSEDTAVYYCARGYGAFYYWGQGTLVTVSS VL: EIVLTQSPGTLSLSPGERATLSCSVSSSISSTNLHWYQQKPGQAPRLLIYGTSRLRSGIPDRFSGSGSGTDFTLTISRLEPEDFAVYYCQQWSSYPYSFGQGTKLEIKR", "dataValue": "0.94 A450 nm"}
